Molecular target: Cytochrome P450 3A4 (Homo sapiens)
Assay: Cytochrome P450 Family 3 Subfamily A Member 4 (CYP3A4) small molecule antagonists: luciferase reporter qHTS assay (AID 1671201); also: nearly all actives have a fitted effect of over 50% in size; also: potency is read from the fitted curve at half-maximal effect
Settings: P450-Glo CYP3A4 enzyme, luciferin luminescence, 1 h; series mostly up to 115 µM
Results filed as inconclusive are left out. The source made the active and inactive calls. Calls follow the shape of the dose curve; as a rule, active = well fitted inhibition curve with a large enough effect in the repeat runs; inconclusive = weak or mixed curves; inactive = no such curve, though single readings can be large or run the other way.
observationType: Potency

These recorded examples may help you get a feel for the data.
>  <compound>
O=C(NCc1ncc(C(F)(F)F)cc1Cl)c1c(Cl)cccc1Cl

>  <targetUnderTest>
Cytochrome P450 3A4 (Homo sapiens)

>  <Potency>
8.94 µM (active)

$$$$
>  <compound>
CCOC=C(C(=O)OCC)C(=O)OCC

>  <targetUnderTest>
Cytochrome P450 3A4 (Homo sapiens)

>  <Potency>
inactive

$$$$
>  <compound>
c1ccc(C[P+](c2ccccc2)(c2ccccc2)c2ccccc2)cc1

>  <targetUnderTest>
Cytochrome P450 3A4 (Homo sapiens)

>  <Potency>
inactive

$$$$
>  <compound>
CC(C)c1ccc2sc3ccccc3c(=O)c2c1

>  <targetUnderTest>
Cytochrome P450 3A4 (Homo sapiens)

>  <Potency>
inactive

$$$$
>  <compound>
CCOC(=O)[C@H](O)[C@@H](O)C(=O)OCC

>  <targetUnderTest>
Cytochrome P450 3A4 (Homo sapiens)

>  <Potency>
inactive

$$$$
>  <compound>
CN1CCN(C)CC1

>  <targetUnderTest>
Cytochrome P450 3A4 (Homo sapiens)

>  <Potency>
inactive

$$$$

Entry "Oc1ccc(Cl)cc1C1CCCC1" — recorded Potency = inactive

So for "O=C(CCCCCCCCc1cccnc1)N1CCC(C=C(c2ccccc2)c2ccccc2)CC1" , the logged Potency turned out to be 0.399 µM (active)

According to the records, this compound O=C(Nc1ccc([N+](=O)[O-])cc1)Nc1ccc([N+](=O)[O-])cc1 (tested in a mixture with another compound) displays Potency of inactive

// sample "O=C1c2ccccc2C(=O)c2c(Cl)cccc21" , its Potency was inactive

Reported Potency of "COc1cc(/C=C/C(=O)CC(=O)/C=C/c2ccc(O)c(OC)c2)ccc1O" : 10.1 µM (active)

The compound listed as "O=C1C=CC(=O)N1c1cccc(N2C(=O)C=CC2=O)c1" has a reported Potency of inactive

Sample CCCCCCCCCCCCCCCCC(C(=O)O)C(O)(CC(=O)O)C(=O)O (centres undefined) ; Potency observed: inactive

Lab note: C=CC(=O)OCC(Br)CBr (centres undefined) gave Potency of inactive

====

Assay: qHTS assay to identify small molecule agonists of the estrogen related receptor (ERR) signaling pathway (AID 1224820)
Settings: ERR reporter cell line, luciferase agonist mode; series mostly up to 46.1 µM
Records with an inconclusive call do not appear. Active and inactive are the calls of the source. The call rests on the fitted dose curve; in most records, active means well fitted activation curve with a large enough effect in the repeat runs; inconclusive means weak or mixed curves; inactive means no such curve, though single readings can be large or run the other way.
Returns: one label drawn from active, inactive

Use the examples below as a reference point.
>  <compound>
COc1cc(C(O)CO)ccc1OS(=O)(=O)O (stereo unspecified)

>  <discreteLabel>
inactive

$$$$
>  <compound>
CCC1(O)CC2CN(CCc3c([nH]c4ccccc34)[C@@](C(=O)OC)(c3cc4c(cc3OC)N(C)C3[C@]45CCN4CC=C[C@@](CC)([C@@H](OC(C)=O)[C@]3(O)C(=O)OC)[C@H]45)C2)C1 (stereo partly specified)

>  <discreteLabel>
inactive

$$$$
>  <compound>
COc1cc(OC)cc(-c2cc3cnc(N)nc3nc2NC(=O)NC(C)(C)C)c1

>  <discreteLabel>
inactive

$$$$

### Prompt I'd appreciate the recorded outcome for "O=C1c2ccccc2-c2n[nH]c3cccc1c23" from this test.
### Response inactive

### Prompt Name the outcome recorded for CC(C)C[C@H](NC(=O)C1OC1C(=O)O)C(=O)NCCCCN=C(N)N (stereo partly specified) in the assay.
### Response inactive

### Prompt Recorded test call requested for "O=c1[nH]c(=O)c2nc3ccccc3nc2[nH]1"
### Response inactive

### Prompt Test call for this compound, please: "O=C1NCc2c1c1c3ccccc3[nH]c1c1[nH]c3ccccc3c21"
### Response inactive

### Prompt State the result this test recorded for "COc1ccc(C(=O)/C(Cc2cc(OC)c(OC)c(OC)c2)=C(\C(=O)O)c2ccc3c(c2)OCO3)cc1" .
### Response inactive

====

Test: qHTS RealTime-Glo MT Cell Viability Assay in HepG2 cells - 24 hour (AID 1224867); also: nearly all actives have a fitted effect of over 50% in size
Settings: RealTime-Glo luminescence; series mostly up to 76.8 µM
Records with an inconclusive call do not appear. The source made the active and inactive calls. Calls come from the whole dose curve; as a rule, active = well fitted cell-killing curve with a large enough effect in the repeat runs; inconclusive = weak or mixed curves; inactive = flat fitted curve, though single readings scatter.
observationType: outcome

>  <compound>
CC(C)C(=O)C(C)C

>  <outcome>
inactive

$$$$
>  <compound>
O=S(=O)(c1ccc(OCc2ccccc2)cc1)c1ccccc1O

>  <outcome>
inactive

$$$$
>  <compound>
CC(C=O)c1ccccc1 (stereo not drawn)

>  <outcome>
inactive

$$$$
>  <compound>
CSc1nnc(C(C)(C)C)c(=O)[nH]1

>  <outcome>
inactive

$$$$
>  <compound>
CCNc1nc(NC(C)(C)C)nc(OC)n1

>  <outcome>
inactive

$$$$

Now take the following compound into account.
In plain terms, "CN1CC[C@H](c2c(O)cc(O)c3c(=O)cc(-c4ccccc4Cl)oc23)[C@H](O)C1" has a documented outcome of inactive

====

Test: qHTS RealTime-Glo MT Cell Viability Assay in HEK293 cells - 32 hour (AID 1224868); also: nearly all actives have a fitted effect of over 50% in size; also: potency is read from the fitted curve at half-maximal effect
Details: RealTime-Glo luminescence; series mostly up to 76.8 µM
Inconclusive results are not listed. Activity calls are given as the source filed them. Calls come from the whole dose curve; as a rule, active = well fitted cell-killing curve with a large enough effect in the repeat runs; inconclusive = weak or mixed curves, or effect the other way; inactive = flat fitted curve, though single readings scatter.
observationType: Potency

Here's what some known entries look like.
>  <compound>
C/C(=C\c1ccc(C(=O)O)cc1)c1ccc2c(c1)C(C)(C)CCC2(C)C

>  <Potency>
inactive

$$$$
>  <compound>
c1ccc(C[P+](c2ccccc2)(c2ccccc2)c2ccccc2)cc1

>  <Potency>
1.55 µM (active)

$$$$
>  <compound>
C=C(C)CCO

>  <Potency>
inactive

$$$$
>  <compound>
C=Cc1ccc(O)c(OC)c1

>  <Potency>
inactive

$$$$

Per the records, this compound ( "CN(C)CCOc1ccc(/C(=C(/CCCl)c2ccccc2)c2ccccc2)cc1" ) has Potency equal to 36.4 µM (active)

Quick note, Potency for "O=C1C=CC(=O)N1c1cccc(N2C(=O)C=CC2=O)c1" landed at 9.77 µM (active)

Short answer for "[Cl][Sc]([Cl])[Cl]" : Potency was inactive

Per the records, this compound ( CCc1cccc(C)c1N(C(=O)C(=O)O)C(C)COC (centres undefined) ) has Potency equal to inactive

Query CC1CCC(C(C)(C)O)CC1 (centres undefined) yields Potency of inactive

The compound "Nc1ccc(F)c([N+](=O)[O-])c1" showed Potency equal to inactive

Notebook: "Cn1ccnc1" , Potency read as inactive

# Potency (compound: CCC(C)(C)c1ccc(CC(C)CN2C[C@@H](C)O[C@@H](C)C2)cc1 (some centres undefined) ) is inactive

Entry "CO[Si](OC)(c1ccccc1)c1ccccc1" ; Potency = inactive

The compound identified as "CN1CCN(C)CC1" registered its Potency at inactive

====

Molecular target: Cytochrome P450 2C9 (Homo sapiens) (UniProt P11712)
Sequence (P11712 whole entry, looked up): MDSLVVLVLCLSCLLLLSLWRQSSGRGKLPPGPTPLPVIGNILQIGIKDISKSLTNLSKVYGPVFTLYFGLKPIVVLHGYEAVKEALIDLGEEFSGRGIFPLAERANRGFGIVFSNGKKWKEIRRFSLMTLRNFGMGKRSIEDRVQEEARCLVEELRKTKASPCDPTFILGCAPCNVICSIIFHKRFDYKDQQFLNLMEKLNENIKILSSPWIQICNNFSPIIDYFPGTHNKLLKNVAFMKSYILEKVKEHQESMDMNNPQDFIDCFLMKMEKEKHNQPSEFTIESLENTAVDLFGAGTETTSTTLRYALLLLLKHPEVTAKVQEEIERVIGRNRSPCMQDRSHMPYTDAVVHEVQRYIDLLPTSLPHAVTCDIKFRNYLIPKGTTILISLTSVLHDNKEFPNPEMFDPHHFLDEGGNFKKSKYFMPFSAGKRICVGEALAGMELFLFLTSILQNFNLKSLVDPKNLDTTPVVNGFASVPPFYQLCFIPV
Assay: Cytochrome P450 Family 2 Subfamily C Member 9 (CYP2C9) small molecule antagonists: luciferase reporter qHTS assay (AID 1671198); also: nearly all actives have a fitted effect of over 50% in size
Settings: P450-Glo CYP2C9 enzyme assay, luciferin luminescence; series mostly up to 115 µM
Records with an inconclusive call do not appear. Activity calls are given as the source filed them. Calls follow the shape of the dose curve; as a rule, active = well fitted inhibition curve with a large enough effect in the repeat runs; inconclusive = weak or mixed curves; inactive = no such curve, though single readings can be large or run the other way.

>  <molecule>
CN1CCN(C)CC1

>  <outcome>
inactive

$$$$
>  <molecule>
C=CC(=O)O[C@H]1C[C@@H]2CC[C@@]1(C)C2(C)C

>  <outcome>
inactive

$$$$
>  <molecule>
NC(=O)C1CO1 (stereo not drawn)

>  <outcome>
inactive

$$$$

====

Assay: qHTS assay for small molecule disruptors of the mitochondrial membrane potential (AID 720635)
Settings: HepG2 mitochondrial membrane potential, Mito-MPS dye ratio; series mostly up to 83.2 µM
Inconclusive results are not listed. Activity calls are given as the source filed them. Calls follow the shape of the dose curve; as a rule, active = well fitted inhibition curve with a large enough effect in the signal ratio in the repeat runs; inconclusive = weak or mixed curves, or effect the other way; inactive = flat fitted curve, though single readings scatter; the % refers to the signal ratio.
// classify into T = active, F = inactive

These solved cases illustrate the format of a correct answer.
>  <compound>
CO/N=C(\C(=O)N[C@@H]1C(=O)N2C(C(=O)O)=C(CSc3nc(C)c(CC(=O)O)s3)CS[C@H]12)c1csc(N)n1

>  <discreteLabel>
F

$$$$
>  <compound>
NC(=O)C1c2ccccc2CCc2ccccc21

>  <discreteLabel>
F

$$$$
>  <compound>
C[Se]CC[C@H](N)C(=O)O

>  <discreteLabel>
F

$$$$
>  <compound>
C=CC1=C(C(=O)O)N2C(=O)[C@@H](NC(=O)/C(=N/OCC(=O)O)c3csc(N)n3)[C@H]2SC1 (stereo in doubt)

>  <discreteLabel>
F

$$$$
>  <compound>
CC(C)=CCC/C(C)=C/CC/C(C)=C/CC/C=C(\C)CC/C=C(\C)CCC=C(C)C

>  <discreteLabel>
F

$$$$
>  <compound>
NC(=S)NS(=O)(=O)c1ccc(N)cc1

>  <discreteLabel>
F

$$$$

### Prompt Call for entry CC(C)NCC1CCc2cc(CO)c([N+](=O)[O-])cc2N1 (stereo not given) :
### Response F

### Prompt I would be grateful if you could indicate the recorded call for "C=CCc1cc(S(=O)(=O)c2ccc(O)c(CC=C)c2)ccc1O" .
### Response T

### Prompt Hi, sorry to bother you, what did the test record for "CCCCC[C@H](O)/C=C/[C@@H]1[C@@H](C/C=C\CCCC(=O)O)[C@@H](O)C[C@H]1O" ?
### Response F

### Prompt Any idea what this test logged for O=C(CCN1CCC(c2ccccc2)C1)c1ccc2c(c1)OCCO2 (stereo not given) ?
### Response F
